system name: rat MCP-1 (rat, UniProt P14844 24-148)
Sequence (P14844 24-148 limits assumed): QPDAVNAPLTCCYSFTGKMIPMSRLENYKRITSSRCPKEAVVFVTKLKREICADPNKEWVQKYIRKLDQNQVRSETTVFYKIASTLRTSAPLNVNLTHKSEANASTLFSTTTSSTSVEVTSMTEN
experiment summary: ELISA, coated antigen
Assignment: determine reported ELISA OD for the given binders.

Query (binder): anti-MCP-1 mAb 1.6.1 (antibody, V domains shown) VH: QVQLVQSGAEVKKPGASVKVSCKVSGYTLTELSMHWVRQAPGKGLEWMGGFDPEDGETIYAQKFQGRVTMTEDTSTDTAYMELSSLRSEDTAVYYCATWYSGIYLAFDIWGQGTMVTVSS VL: EIVLTQSPDFQSVTPKEKVTITCRASQSIGSSLHWYQQKPDQSPKLLIKYASQSFSGVPSRFSGSGSGTDFTLTINSLEAEDAATYYCHQSSSLPHTFGGGTKVEIKR ; field requested: ELISA OD
0.062 OD450

Which ELISA OD value is on record for anti-MCP-1 mAb 1.2.1 (antibody, V domains shown) VH: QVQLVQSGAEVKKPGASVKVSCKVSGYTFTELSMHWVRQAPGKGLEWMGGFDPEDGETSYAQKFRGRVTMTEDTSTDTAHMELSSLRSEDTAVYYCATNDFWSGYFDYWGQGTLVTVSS VL: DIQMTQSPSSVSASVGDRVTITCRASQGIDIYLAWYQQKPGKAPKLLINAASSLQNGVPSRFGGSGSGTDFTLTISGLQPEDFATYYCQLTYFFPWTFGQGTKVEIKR ?
0.044 OD450

Recorded ELISA OD of anti-MCP-1 mAb 1.13.1 (antibody, V domains shown) VH: QVQLVQSGAEVKKPGASVKVSCKVSGHTLTELSMHWVRQAPGKGLEWMGGFDPEDDETIYAQKFQDRVTMTEDTSTDTAYMELSSLRSEDTAVYYCATNDFWSGYFDCWGQGTLVTVSS VL: DIVLTQSPDSLAVCLGERATINCKSSQSVLYSPNNKNFLVWYQQRPGQPPKLLIYWASTRESGVPDRFSGSGSGTDFTLTISSLQAEDVAVYYCQQYYSSPWTFGQGTKVEIKR , please.
0.06 OD450
